Would you kindly list IC50 for each of these compounds?
Target: alanyl aminopeptidases (APN) (Homo sapiens, UniProt P15144)
Sequence (P15144 whole entry, species assumed): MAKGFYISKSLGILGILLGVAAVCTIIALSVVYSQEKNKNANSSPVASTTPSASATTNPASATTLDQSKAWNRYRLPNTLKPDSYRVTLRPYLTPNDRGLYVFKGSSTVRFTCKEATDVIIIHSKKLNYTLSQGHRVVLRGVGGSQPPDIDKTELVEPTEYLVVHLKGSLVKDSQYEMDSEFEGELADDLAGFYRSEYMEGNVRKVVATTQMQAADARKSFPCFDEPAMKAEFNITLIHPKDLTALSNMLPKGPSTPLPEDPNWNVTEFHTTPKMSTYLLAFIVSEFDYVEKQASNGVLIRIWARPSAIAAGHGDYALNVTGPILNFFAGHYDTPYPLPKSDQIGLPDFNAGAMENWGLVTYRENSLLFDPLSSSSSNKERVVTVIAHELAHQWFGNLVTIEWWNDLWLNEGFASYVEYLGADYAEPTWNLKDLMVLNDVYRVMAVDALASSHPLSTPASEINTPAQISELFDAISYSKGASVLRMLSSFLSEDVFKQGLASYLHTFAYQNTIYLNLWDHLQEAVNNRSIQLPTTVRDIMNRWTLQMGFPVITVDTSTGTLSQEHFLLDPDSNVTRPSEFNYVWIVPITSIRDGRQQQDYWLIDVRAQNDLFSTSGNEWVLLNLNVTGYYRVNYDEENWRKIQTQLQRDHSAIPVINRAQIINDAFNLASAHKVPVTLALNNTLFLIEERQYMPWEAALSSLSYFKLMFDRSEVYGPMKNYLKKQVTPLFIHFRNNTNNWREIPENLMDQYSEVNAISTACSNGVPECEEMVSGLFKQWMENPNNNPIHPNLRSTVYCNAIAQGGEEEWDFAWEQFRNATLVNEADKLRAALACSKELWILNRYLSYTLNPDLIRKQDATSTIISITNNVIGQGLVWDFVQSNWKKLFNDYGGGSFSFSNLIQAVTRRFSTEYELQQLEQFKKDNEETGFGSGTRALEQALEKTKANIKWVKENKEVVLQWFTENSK
Test: Inhibition of alanyl aminopeptidase enzymatic activity, fluorogenic substrate (Ala)2-rhodamine 110
Type: biochemical
Conditions: Table 3, unstarred values; read-out: IC50APN
Answers are plain numbers, in µM.

compound: CCCN1C(=O)C(C#N)=C(C)/C(=C\c2ccc(-c3cccc(Cl)c3C)o2)C1=O [A3.112]
IC50 / µM: 20.8

Provide reported IC50 for each item, in the same order as listed.
1. O=C(N/N=C/c1ccco1)c1cc(-c2ccc(F)cc2)n[nH]1 [A3.066]
2. Cc1cc(C)c(C)c(C(=O)COC(=O)c2ccc(-n3c(C)ccc3C)cc2)c1C [A3.014]
3. CC1=C(C#N)C(=O)N(CCO)C(=O)/C1=C\c1ccc(-c2ccc(C)c(Cl)c2)o1 [A3.322]
4. CC(/C=C/c1ccco1)=N\NC(=O)CNc1ccc2ccccc2c1 [A3.173]
5. O=C1/C(=C/C=C/c2ccco2)CCC/C1=C\C=C\c1ccco1 [A3.147]
6. Cc1ccccc1NC(=O)C1C(c2cccs2)C(C#N)=C(SCC(=O)Nc2ccc(Br)cc2)NC1(C)O (centres unmarked) [A3.204]

14.4
4.5
125
28.5
24.4
33.9

Below is a list of compounds. For each, state its recorded IC50.
1. Cc1cc(C(=O)N/N=C/c2ccco2)[nH]n1 [A3.255]
2. CC(/C=C/c1ccco1)=N\NC(=O)COc1ccc(C(C)(C)C)cc1 [A3.269]
3. O=C(O)c1ccc(-n2c(/C=C/c3ccco3)nc3ccccc3c2=O)cc1 [A3.116]
4. O=C(N/N=C/c1ccco1)c1cccc(NC(=O)c2cccc(Br)c2)c1 [A3.131]
5. COC(=O)C1=C(C(=O)OC)C(c2cc(Br)ccc2O)c2sc(O)nc2S1 (centres unmarked) [A3.015]
6. O=C(CNS(=O)(=O)c1ccc2c(c1)OCCO2)N/N=C/c1ccco1 [A3.274]

[48.2, 50, 21.2, 22.4, 4.7, 55.6]

Please state, for each entry, its recorded IC50.
1. Cc1ccc(C(=O)N/C(=C\c2ccco2)C(=O)N2CC3CC(C2)c2cccc(=O)n2C3)cc1C (centres unmarked) [A3.048]
2. CCCOC(=O)c1cc(-c2ccc(/C=C3\C(=O)N(CCO)C(=O)C(C#N)=C3C)o2)ccc1Cl [A3.270]
3. O=C(Nc1cccc(/N=C/c2cc(Br)cc(Br)c2O)c1)c1ccco1 [A3.031]
4. COC(=O)CCC/C=C1/SC[C@@H](NC(=O)c2ccccc2)/C1=N/O [A3.317]
5. Cc1ccc(/C=C(\NC(=O)c2ccccc2)C(=O)NC2CC2)o1 [A3.073]
6. O=C(N/N=C/c1ccco1)c1ccccc1O [A3.075]

11.8
54
8.2
93.6
15.6
16
